For each of the compounds below, state its EC50.
studySystem: human 5-HT2C(VSV) (Homo sapiens, UniProt P28335, I156V/I160V/N158S)
Sequence (P28335 33-458 I156V/N158S/I160V limits assumed): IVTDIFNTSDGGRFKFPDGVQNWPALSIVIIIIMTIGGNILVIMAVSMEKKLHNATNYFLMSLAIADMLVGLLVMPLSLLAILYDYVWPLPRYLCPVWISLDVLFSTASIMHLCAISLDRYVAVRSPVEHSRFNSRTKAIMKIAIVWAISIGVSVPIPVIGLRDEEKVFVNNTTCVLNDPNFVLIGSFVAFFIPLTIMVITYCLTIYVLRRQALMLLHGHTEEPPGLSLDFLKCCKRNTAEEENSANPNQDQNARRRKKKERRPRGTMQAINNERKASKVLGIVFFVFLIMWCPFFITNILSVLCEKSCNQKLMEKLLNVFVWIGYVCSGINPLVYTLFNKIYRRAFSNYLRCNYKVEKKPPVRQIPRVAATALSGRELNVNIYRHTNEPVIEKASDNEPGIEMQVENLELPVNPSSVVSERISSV
protocolText: cell-based

For reference, reported EC50 for CCn1cc(CCN(C)C)c2c(OCc3cc(F)ccc3C)cc(F)cc21 [1-17b] stands at 1 to 500 nM

For reference, reported EC50 for CCCn1cc(CCN)c2c3c(ccc21)OCCO3 [40-6] stands at < 10000 nM

For reference, reported EC50 for CCn1cc(CCNc2ccccc2)c2c(O)ccc(F)c21 [11-7] stands at 500 to 10000 nM

For reference, reported EC50 for CCn1cc(CCNCCc2ccccc2)c2c(OCc3ccccc3)cc(F)cc21 [26-9] stands at 500 to 10000 nM

For reference, reported EC50 for CN(C)CCc1cn(Cc2cccs2)c2c(F)ccc(OCc3ccccc3)c12 [7-4] stands at 1 to 500 nM

For reference, reported EC50 for CCOc1c(F)ccc2c1c(CCNCc1ccccc1C(F)(F)F)cn2C [30-21] stands at 1 to 500 nM

For reference, reported EC50 for CCCn1cc(CCNC)c2c(OCc3ccc(F)cc3)c(F)ccc21 [33-15] stands at 1 to 500 nM

For reference, reported EC50 for CCn1cc(CCNCCc2cccc(C(F)(F)F)c2)c2c(OCc3ccccc3)cc(F)cc21 [31-13] stands at 1 to 500 nM

For reference, reported EC50 for NCCc1cn(CCOc2ccccc2)c2ccc(F)c(O)c12 [19-4] stands at 1 to 500 nM

For reference, reported EC50 for CCn1cc(CCNCc2ccccc2Cl)c2c(OC)ccc(F)c21 [20-10] stands at 1 to 500 nM
